- Assay comment: Partition coefficient (logP)
- Assay type: physicochemical
- Experimental setup: octanol/water
# Lookup of reported logP keyed by entry
Keep the answer to the number alone.

O=[N+]([O-])c1ncnc2c1ncn2C1OC(CO)CC1F (stereo unspecified) :: -0.395

Qu. Reported logP, molecule CN(C)c1ncnc2c1ncn2C1OC(CO)CC1F (stereo unspecified) : ____
Ans. 0.797

Qu. Reported logP, molecule OCC1CC(F)C(n2cnc3c(NOCc4ccccc4)ncnc32)O1 (stereo unspecified) : ____
Ans. 1.25

Qu. Reported logP, molecule CONc1ncnc2c1ncn2C1OC(CO)CC1F (stereo unspecified) : ____
Ans. -0.414

Qu. Reported logP, molecule CCNc1ncnc2c1ncn2C1OC(CO)CC1F (stereo unspecified) : ____
Ans. 0.779

Qu. Reported logP, molecule OCC1CC(F)C(n2cnc3c(NO)ncnc32)O1 (stereo unspecified) : ____
Ans. -0.983

----------
- Assay comment: Anti-HIV activity by using phytohemagglutininin-stimulated peripheral blood mononuclear cell(PHA/PBM) test system
- Assay type: functional
- Experimental setup: Homo sapiens
# Lookup of reported IC50 keyed by entry

Some solved entries appear below for comparison.
OCC1CC(F)C(n2cnc3c(O)ncnc32)O1 (stereo not drawn) :: 6.3 µM
CNc1ncnc2c1ncn2C1OC(CO)CC1F (stereo not drawn) :: 13.1 µM
OCC1CC(F)C(n2cnc3c(Cl)ncnc32)O1 (stereo not drawn) :: 5.9 µM

Qu. Reported IC50, compound CONc1ncnc2c1ncn2C1OC(CO)CC1F (stereo not drawn) : ____
Ans. > 80 µM

Qu. Reported IC50, compound OCC1CC(F)C(n2cnc3c(NO)ncnc32)O1 (stereo not drawn) : ____
Ans. 6.8 µM

Qu. Reported IC50, compound O=[N+]([O-])c1ncnc2c1ncn2C1OC(CO)CC1F (stereo not drawn) : ____
Ans. 9.6 µM

Qu. Reported IC50, compound NNc1ncnc2c1ncn2C1OC(CO)CC1F (stereo not drawn) : ____
Ans. 36.3 µM

Qu. Reported IC50, compound OCC1CC(F)C(n2cnc3c(F)ncnc32)O1 (stereo not drawn) : ____
Ans. > 5 µM

Qu. Reported IC50, compound O=c1[nH]cnc2c1ncn2[C@H]1CC[C@@H](CO)O1 : ____
Ans. 0.3 µM

Qu. Reported IC50, compound Nc1ncnc2c1ncn2[C@@H]1O[C@H](CO)C[C@@H]1F : ____
Ans. 3.3 µM

Qu. Reported IC50, compound CCNc1ncnc2c1ncn2C1OC(CO)CC1F (stereo not drawn) : ____
Ans. 11.1 µM

Qu. Reported IC50, compound OCC1CC(F)C(n2cnc3c(NOCc4ccccc4)ncnc32)O1 (stereo not drawn) : ____
Ans. > 80 µM

Qu. Reported IC50, compound CN(C)c1ncnc2c1ncn2C1OC(CO)CC1F (stereo not drawn) : ____
Ans. 18 µM
